Tested on: OVCAR-8 ovarian
procedureText: NCI tumour cell line growth inhibition, 48 h
Recorded GI50 for the following compounds

Solved cases (8 shown):
compound	measValue
COc1cc(/C=C2\CC3C4CCC5=CC(=O)CC[C@]5(C)C4CC[C@]3(C)C2=O)ccc1OCCN1CCCC1 (stereo partly drawn)	3400 nM
CCCCCCCCCCCCCCCC(=O)NS(=O)(=O)OC[C@H]1O[C@@H](n2cnc3c(N)ncnc32)[C@H](O)[C@@H]1O	300 nM
CC[O-].CC[O-].O=C1C=C([O-])C(=O)c2ccccc21.O=C1C=C([O-])C(=O)c2ccccc21.[Ti+4]	> 100000 nM
COc1ccc(N=Nc2ccc(O)c(=O)cc2)cc1	2880 nM
Cc1[nH]c(C(=O)Nc2cccc(OC3CCNCC3)c2)c(Cl)c1Cl	2050 nM
CCN1C(=O)/C(=c2\sc3n(c2=O)C2C(NN=3)N(CC)C(=O)N2CC)c2ccccc21 (stereo not drawn)	665 nM
Cc1cc(S(=O)(=O)Nc2nc3ccccc3c(=O)n2Cc2ccco2)c(S)cc1Cl	57700 nM
O=C(/C=C(/C=C/c1cccc2[nH]ccc12)OB(F)F)/C=C/c1cccc2[nH]ccc12	347 nM

Can you share its GI50? I mean this compound: `CC1(C)N=C(N)N=C(N)N1c1ccc(OCC(=O)Nc2ccc(S(=O)(=O)F)cc2Cl)c(Cl)c1`
7790 nM

And for `COc1ccc(-c2nc3sccn3c2-c2ccnc(NCCNS(=O)(=O)c3ccc(C(F)(F)F)cc3)n2)cc1` ?
2850 nM

And for `CC(C)n1cc(-c2ccc3c(c2)N(C)CC3)c2c(NS(=O)(=O)c3ccn(C)n3)ccnc21` ?
72700 nM

And for `COc1ccccc1CNCCCN1C(=O)c2ccc3c4c(ccc(c24)C1=O)C(=O)N(CCCNCCCCNCCCN)C3=O` ?
285 nM

And for `CS(=O)(=O)Nc1cc(-c2ccc3ncc(C#N)c(Nc4ccc(F)c(Cl)c4)c3c2)cnc1Cl` ?
331 nM

----------
System: EKVX NSCLC
procedureText: NCI tumour cell line growth inhibition, 48 h; in the data active = GI50 below about 0.43 µM; inactive = the rest
In this exercise, the only acceptable responses are active, inactive

Here are 3 molecules together with their reported answers.
cpdSmiles	group
Cc1ccc(NC(=S)NNC(=S)Nc2ccc(C)cc2)cc1	inactive
CC1(C)CC[C@]23CC[C@]4(C)[C@H](CC[C@@H]5[C@@]6(C)CCCNC(C)(C)[C@@H]6CC[C@]54C)[C@H]2[C@H]1OC3	inactive
CCCCCCCCCN=C(N)c1ccc(N2CCN(c3ccc(C(N)=NCCCCCCCCC)cc3)CC2)cc1	inactive

What call does the record list for `COc1ccc(-c2nc3sccn3c2-c2ccnc(NCCNS(=O)(=O)c3ccc(C(F)(F)F)cc3)n2)cc1` ?
inactive

And for `CCOC(=O)c1c(-c2ccccc2)n2c(=O)cc(C)c3c(O)c(O)cc1c32` ?
inactive

And for `CC(C)[C@@]12C[C@@H](OC(=O)COC(=O)c3ccccc3)[C@@](C)(O1)[C@@H]1CC[C@@H](C)[C@H]1[C@@H]2OC(=O)/C=C/c1ccccc1` ?
inactive

And for `O=C1NC(=Nc2ccc(O)cc2)S/C1=C\c1cccs1` ?
inactive

And for `COc1cccc(C(=O)NNc2nc(Cl)nc(N3CCN(C(c4ccccc4)c4ccccc4)CC3)n2)c1` ?
inactive

And for `C=C(C)[C@@H]1CC[C@]2(C(=O)O)CC[C@]3(C)[C@H](CC[C@@H]4[C@@]5(C)C/C(=C/c6ccco6)C(=O)C(C)(C)[C@@H]5CC[C@]43C)[C@@H]12` ?
inactive

And for `COc1ccc2[nH]c(C(=O)OCc3ccc4c(Br)cc(Br)c(O)c4n3)cc2c1` ?
inactive

And for `CS(=O)(=O)Nc1cc(-c2ccc3ncc(C#N)c(Nc4ccc(F)c(Cl)c4)c3c2)cnc1Cl` ?
active

And for `C[C@@]12CC[C@@H](O)C[C@@H]1CC[C@H]1[C@H]2CC[C@@]2(C)[C@H](c3ccc(=O)oc3)CC[C@@]12O` ?
active
